# tested.target: CXCR4 receptor (UniProt P61073 1-352, limits assumed)
# Sequence (P61073 whole entry): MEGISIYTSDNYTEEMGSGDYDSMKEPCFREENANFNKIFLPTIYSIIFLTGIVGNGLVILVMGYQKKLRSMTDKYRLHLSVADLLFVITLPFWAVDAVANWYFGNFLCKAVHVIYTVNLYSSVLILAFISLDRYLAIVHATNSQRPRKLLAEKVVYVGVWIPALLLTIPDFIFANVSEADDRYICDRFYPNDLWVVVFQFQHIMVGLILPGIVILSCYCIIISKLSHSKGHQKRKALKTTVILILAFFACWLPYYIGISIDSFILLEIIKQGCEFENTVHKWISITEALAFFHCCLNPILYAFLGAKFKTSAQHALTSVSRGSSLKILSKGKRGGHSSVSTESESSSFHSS
# test.name: cell-based or functional assay
Where no end group is shown, it is not given here.
# cutoff 8 µM applies to Concentration, required for complete inhibition of [Ca^2+I] release; >= gives 1, < gives 0

> print(dat)
                             binder  group.label
1    LLFVITLPFWAVDAVANWYFGN [F-2-1]            0
2     VITLPFWAVDAVANWYFGNKK [F-2-4]            1
3  LLFVITLPFWAVDAVANWYFGNDD [F-2-2]            0
4  LLFVITLPFWAVDAVANWYFGNKK [F-2-8]            1
5  Ac-LLFVITLPFWAVDAVANDD [AcF-2-5]            1
6  LSVADLLFVITLPFWAVDAVANDD [F-2-6]            1
7       LLFVITLPFWAVDAVANDD [F-2-5]            1
